Where do the numbers come from? From patent US8404708B2.

Biological target: Recombinant human NK3 (hNK3) receptor (Homo sapiens)
Construct: expressed in transfected cells
Sequence (P29371 whole entry): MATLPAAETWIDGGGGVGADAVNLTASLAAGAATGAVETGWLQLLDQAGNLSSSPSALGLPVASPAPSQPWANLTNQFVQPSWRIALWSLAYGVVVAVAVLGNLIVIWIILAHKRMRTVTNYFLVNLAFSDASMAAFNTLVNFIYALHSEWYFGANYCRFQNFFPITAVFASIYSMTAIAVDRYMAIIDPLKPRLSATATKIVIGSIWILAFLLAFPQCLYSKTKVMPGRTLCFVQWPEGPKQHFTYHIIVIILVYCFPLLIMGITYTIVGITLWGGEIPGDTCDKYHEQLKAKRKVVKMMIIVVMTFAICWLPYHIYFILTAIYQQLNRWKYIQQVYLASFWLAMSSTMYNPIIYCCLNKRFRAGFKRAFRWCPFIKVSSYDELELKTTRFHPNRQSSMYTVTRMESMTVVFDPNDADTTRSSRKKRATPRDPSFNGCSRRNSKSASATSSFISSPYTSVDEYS
Assay: NK3 receptor binding, [3H]SR142801 displacement, membrane preparations
Conditions: second value of the cell NK1/NK3; read-out: pKi NK3 (converted)
MEASURED METRIC: Ki (nM)

COc1cc(OC)cc(C(C)(C)C(=O)N(C)c2cnc(N3C[C@H](O)C[C@H]3CO)cc2-c2ccccc2C)c1 6.03
Cc1cc(F)ccc1-c1cc(N2C[C@@H](O)C[C@H]2CO)ncc1N(C)C(=O)C(C)(C)c1cc(C(F)(F)F)cc(C(F)(F)F)c1 1.02
Cc1ccccc1-c1cc(N2CC(=O)C[C@H]2CO)ncc1N(C)C(=O)C(C)(C)c1cc(C(F)(F)F)cc(C(F)(F)F)c1 1.66
CN(C(=O)C(C)(C)c1cc(C(F)(F)F)cc(C(F)(F)F)c1)c1cnc(N2CC[C@H](O)[C@H]2CO)cc1-c1cc(Cl)ccc1Cl 2.19
CN(C(=O)C(C)(C)c1cc(C(F)(F)F)cc(C(F)(F)F)c1)c1cnc(N2CCC[C@H]2CO)cc1-c1ccc(Cl)c(Cl)c1 3.72
CN(C(=O)C(C)(C)c1cc(C(F)(F)F)cc(C(F)(F)F)c1)c1cnc(N2C[C@@H](O)C[C@H]2CO)cc1-c1ccccc1 15.8

P: COc1ccccc1-c1cc(N2CC[C@H](O)[C@H]2CO)ncc1N(C)C(=O)C(C)(C)c1cc(C(F)(F)F)cc(C(F)(F)F)c1
Q: CN(C(=O)C(C)(C)c1cc(C(F)(F)F)cc(C(F)(F)F)c1)c1cnc(N2C[C@H](O)C[C@H]2CO)cc1-c1ccc(F)cc1CO
**Query** Lab notebook, comparison: P versus Q , higher Ki goes to which? Please indicate the selected item by its label.
**Result** Q
